Documented composite z-score across a set of compounds
measuredOn: Torsin-1A (Homo sapiens) (UniProt O14656)
Sequence (O14656 whole entry, looked up): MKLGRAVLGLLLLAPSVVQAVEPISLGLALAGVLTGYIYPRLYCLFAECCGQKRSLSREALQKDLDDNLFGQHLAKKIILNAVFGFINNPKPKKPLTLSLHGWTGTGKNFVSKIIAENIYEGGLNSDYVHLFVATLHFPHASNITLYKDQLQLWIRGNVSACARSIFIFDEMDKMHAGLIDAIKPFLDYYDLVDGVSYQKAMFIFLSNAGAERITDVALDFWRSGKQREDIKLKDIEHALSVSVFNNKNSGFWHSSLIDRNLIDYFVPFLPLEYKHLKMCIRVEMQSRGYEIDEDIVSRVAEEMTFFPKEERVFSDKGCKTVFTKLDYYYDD
assayMethodText: TOR1A wild-type binding on microarray – cell lysate, small-molecule microarray, lysate, 635/667 nm, primary screen (AID 1149)
experimentalSetup: COS7 hTOR1A-WT lysate, 635 nm fluorescence, higher = more signal
Please give the numeric answer without any surrounding text.

Solved cases (5 shown):
[
  {
    "compound": "COc1ccc([Si](C)(C)[C@H]2[C@H](CC(=O)N3CCC[C@H]3CO)O[C@@]3(C(=O)N(Cc4cccc(N5CCC5=O)c4)c4ccccc43)[C@@H]2C)cc1",
    "composite z-score": 0.633
  },
  {
    "compound": "CS(=O)(=O)CCOC(=O)C1=CC(c2ccc(CO)cc2)=CC(c2cccs2)N(Cc2cccc(OC(F)(F)F)c2)C=C1C(=O)OCCS(C)(=O)=O (configuration not stated)",
    "composite z-score": 1.45
  },
  {
    "compound": "C/C=C/[C@H](CCn1cc([C@H](O)c2ccccc2)nn1)[Si](C)(C)c1ccc(OC)cc1",
    "composite z-score": 0.0596
  },
  {
    "compound": "Cc1ccc([C@H]2C(C(=O)O)=C[C@@H](C(C)C)N2S(=O)(=O)c2ccc(C)cc2)cc1",
    "composite z-score": -0.165
  },
  {
    "compound": "CCCCC(=C=CC[C@H](O)c1ccccc1OCCO)C[C@H](O)c1cc(Cl)cc(Cl)c1O",
    "composite z-score": 0.873
  }
]

Prompt line: Query the reported composite z-score for Torsin-1A (Homo sapiens) (UniProt O14656); item: "COC(=O)[C@@]1(Cc2ccc(OC)cc2)[C@H]2c3cc(C(=O)N(C)C)n(Cc4ccc(OC)c(OC)c4)c3C[C@H]2CN1C(=O)c1ccccc1"
Response line: 0.258

Prompt line: GET /values?readout=composite z-score&system=Torsin-1A (Homo sapiens) (UniProt O14656)&item= "C=C(/C(=C/C[C@@H](OC(=O)c1ccncc1)c1ccc(CO)o1)c1cc(C(=O)OC)ccc1OC)C(C)C"
Response line: 1.24

---

assayMethodText: probe aDKK1 binding to arrayed compounds – biochemical, biotinylated probe, 635/667 nm fluorescence, primary screen (AID 1099);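 also: score merges 667nm spot fluorescence with signal to noise across triplicate slides; reference of the scale not given here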
experimentalSetup: small-molecule microarray, higher = more signal
Threshold rule: composite z-score greater than or equal to -0.06 is Met; below that, Not met.

[
  {
    "compound": "CN(C)CCCC[C@@H]1NC(=O)[C@@H]2C[C@H](C(=O)NCCCCCN)[C@H](c3ccc(O)cc3)N2C1=O",
    "className": "Met"
  },
  {
    "compound": "C=CCOC(=O)[C@@H]1[C@H]2C(=O)O[C@H](c3ccccc3)[C@H](c3ccccc3)N2[C@H](c2ccc(OCCOC(=O)[C@H]3C[C@H]4C(=O)N[C@@H](CC(C)C)C(=O)N4[C@H]3c3cccc(OCCO)c3)cc2)[C@@]12C(=O)Nc1ccc(I)cc12",
    "className": "Met"
  },
  {
    "compound": "CC(=O)N1Cc2ccccc2C[C@@]2(N=C(c3ccc(OCCCO)cc3)O[C@H]2c2ccccc2)C1=O",
    "className": "Met"
  },
  {
    "compound": "CCN(CC)c1ccc(N2CC=CC34O[C@@H]5C=CCOC(=O)[C@@H]5[C@H]3C(=O)N(CCCCCO)[C@@H]4C2=O)cc1 (stereo not given in full)",
    "className": "Not met"
  },
  {
    "compound": "CC(C)N1C(=O)c2ccccc2[C@](C)(C(=O)NCCCN(C)C)[C@@H]1c1ccc(CO)cc1",
    "className": "Met"
  }
]

Prompt line: Determine whether this compound has composite z-score no lower than -0.06: "Cc1ccccc1/C=C/C=O"
Response line: Not met

Prompt line: # check: composite z-score of "COCCn1c(C(=O)N2CCCC2)cc2c1C[C@H]1CN(C(=O)c3ccccc3)[C@@](Cc3ccc(OC)cc3)(C(=O)OC)[C@@H]21" is greater than or equal to -0.06
Response line: Met

Prompt line: Kindly determine if composite z-score recorded for "COc1ccccc1CN1C(=O)c2ccccc2[C@](Cc2ccccc2I)(C(=O)NC2CC2)[C@@H]1c1ccc(CO)cc1" is above or exactly -0.06.
Response line: Not met

Prompt line: // inclusive: composite z-score at least -0.06? input: "COCCOC(=O)N1C(=O)[C@@]2(c3cc(C#Cc4ccc(OC)cc4)ccc31)[C@H](c1ccc(OCCO)cc1)N1[C@H](c3ccccc3)[C@H](c3ccccc3)OC(=O)[C@H]1[C@@H]2C(=O)N1CCc2cc(OC)c(OC)cc2C1"
Response line: Not met

Prompt line: Textbook exercise: given the entry "COC(=O)[C@@]1(Cc2ccc(OC)cc2)[C@H]2c3cc(C(=O)N4CCCC4)n(CCN4CCOCC4)c3C[C@H]2CN1C(=O)c1ccccc1" , state whether its composite z-score is greater than or equal to -0.06.
Response line: Met
